- TEST TARGET: Aβ1-42 fibrils (human)
- Sequence (peptide, as listed by the source): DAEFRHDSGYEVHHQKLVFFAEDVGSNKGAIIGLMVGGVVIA
- TEST DESCRIPTION: competition ELISA; plate coated with fibril Aβ42; competitor hBP-biotin; IC50 of test divided by IC50 of hBP
Items are presented alongside their recorded IC50 ratio (test:hBP).
Just the number, please, no unit attached.

{"BINDER": "h4921G (antibody, V domains shown) VH: EVQLLESGGGLVQPGGSLRLSCAASGFTFSNFGMSWVRQAPGKGLEWVASVRSGGGRTYYSDNVKGRFTISRDNSKNTLYLQMNSLRAEDTAVYYCVRYDHYSGTSDYWGQGTLVTVSS VL: DVVMTQSPLSLPVTLGEPASISCKSSQSLLDSDGKTYLNWLLQKPGQSPQRLIYRVTNRDTGVPDRFSGSGSGTDFTLKISRVEAEDVGVYYCWQGTHFPRTFGQGTKVEIK", "OBSERVATION TYPE": "IC50 ratio (test:hBP)", "READOUT NUMBER": 1.01}

get_value(item= h2927 (antibody, V domains shown) VH: EVQLLESGGGLVQPGGSLRLSCAASGFTFSNFGMSWVRQAPGKGLEWVASVRSGSGRTYYSDNVKGRFTISRDNSKNTLYLQMNSLRAEDTAVYYCVRYDHYTGTSDYWGQGTLVTVSS VL: DVVMTQSPLSLPVTPGEPASISCKSSQSLLDYDGKTYLNWLLQKPGQSPQRLIYKVSNRDSGVPDRFSGSGSGTDFTLKISRVEAEDVGVYYCWQGTHFPRSFGQGTKVEIK , readout=IC50 ratio (test:hBP)) returns 1.6

get_value(item= h2926 (antibody, V domains shown) VH: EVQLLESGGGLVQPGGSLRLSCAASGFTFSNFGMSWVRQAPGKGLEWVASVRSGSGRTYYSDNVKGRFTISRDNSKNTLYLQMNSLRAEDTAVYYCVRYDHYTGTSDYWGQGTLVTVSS VL: DVVMTQSPLSLPVTPGEPASISCKSSQSLLDYDGKTYLNWLLQKPGQSPQRLIYKVSNRDSGVPDRFSGSGSGTDFTLKISRVEAEDVGVYYCWQGTHFPRTFGQGTKVEIK , readout=IC50 ratio (test:hBP)) returns 0.99

Provenance of the data: patent US20230331828A1
